Recorded viability, T/C, one value per entry.
- Test system: 186277-243-T-J2-PDC complex spheroid viability;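 further: spheroids exposed to drugs for 7 days; 100% = DMSO vehicle control viability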
- Assay Notes: Anticancer human tumor 186277-243-T-J2-PDC patient-derived colon adenocarcinoma cell line growth inhibition [GQUAD]
- Experimental Context: second compound 0.1 µM; first compound 0.00999 µM; hits give low values
Report only the number, with the unit % understood.

Worked examples, 3 molecules total:
| Molecule | Study Target | Unit Text | viability, T/C |
| --- | --- | --- | --- |
| Cc1[nH]c2ccccc2c1CCNCc1ccc(/C=C/C(=O)NO)cc1 + CN(C)c1ccc(Nc2c3ccc(NC(=O)CCN4CCCC4)cc3nc3cc(NC(=O)CCN4CCCC4)ccc23)cc1 | 186277-243-T-J2-PDC complex spheroid viability | % | 80.6 |
| Cn1ncnc1[C@H]1c2n[nH]c(=O)c3cc(F)cc(c23)N[C@@H]1c1ccc(F)cc1 + Cc1[nH]c2ccc(F)cc2c1-c1nc2c3cccnc3c3ncccc3c2[nH]1 | 186277-243-T-J2-PDC complex spheroid viability | % | 101 |
| CCc1c2c(nc3ccc(O)cc13)-c1cc3c(c(=O)n1C2)COC(=O)[C@]3(O)CC + CN(C)c1ccc(Nc2c3ccc(NC(=O)CCN4CCCC4)cc3nc3cc(NC(=O)CCN4CCCC4)ccc23)cc1 | 186277-243-T-J2-PDC complex spheroid viability | % | 44.3 |

Q: Entry CCc1c2c(nc3ccc(O)cc13)-c1cc3c(c(=O)n1C2)COC(=O)[C@]3(O)CC + Cc1cnc(CNC(=O)c2c(=O)c3ccc(N4CCCN(C)CC4)nc3n3c2sc2ccccc23)cn1 : reported viability, T/C = ?
Ans: 53.2

Q: Entry to check: Cn1ncnc1[C@H]1c2n[nH]c(=O)c3cc(F)cc(c23)N[C@@H]1c1ccc(F)cc1 + CN(C)c1ccc(Nc2c3ccc(NC(=O)CCN4CCCC4)cc3nc3cc(NC(=O)CCN4CCCC4)ccc23)cc1
Ans: 96.2

Q: Entry to check: CCc1c2c(nc3ccc(O)cc13)-c1cc3c(c(=O)n1C2)COC(=O)[C@]3(O)CC + Cc1[nH]c2ccc(F)cc2c1-c1nc2c3cccnc3c3ncccc3c2[nH]1
Ans: 52.4

Q: Entry to check: Cc1[nH]c2ccccc2c1CCNCc1ccc(/C=C/C(=O)NO)cc1 + Cc1[nH]c2ccc(F)cc2c1-c1nc2c3cccnc3c3ncccc3c2[nH]1
Ans: 90.7
